- ASSAY_OVERVIEW: Cytotoxicity against human leukocytes after 48 hrs by MTT assay
- Type: cell-based
- APPLIED_CONDITIONS: Leukocyte
pIC50: −log10 of the molar value.

# MOLECULE, pIC50
data = [
    ("CC(c1ccccc1)N1C(=O)/C(=C\\c2cnc3ccccc3c2)c2ccccc21 (stereo in doubt; 25)", 4.85),
]

----------
- System: HL-60
- ASSAY_OVERVIEW: Induction of cell differentiation in human HL60 cells at 5.0 uM after 72 hrs by NBT reduction assay
- Assay type: functional
REPORTED_PROPERTY: Activity

# COMPOUND, SYSTEM_UNDER_TEST, REPORTED_PROPERTY, ASSAY_RESULT
measured = [
    ("O=C1/C(=C\\c2ccccn2)c2ccccc2N1Cc1ccccc1", "HL-60", "Activity", "3.4%"),
    ("O=C1/C(=C\\c2ccnc3ccccc23)c2ccccc2N1Cc1ccccc1", "HL-60", "Activity", "2.1%"),
    ("CC(c1ccccc1)N1C(=O)/C(=C\\c2ccccn2)c2ccccc21 (stereo unspecified)", "HL-60", "Activity", "2%"),
    ("O=C1/C(=C\\c2ccc3ccccc3n2)c2ccccc2N1Cc1ccccc1", "HL-60", "Activity", "4.4%"),
    ("CC(c1ccccc1)N1C(=O)/C(=C\\c2ccnc3ccccc23)c2ccccc21 (stereo unspecified)", "HL-60", "Activity", "Toxic"),
    ("O=C1/C(=C\\c2cccnc2)c2ccccc2N1Cc1ccccc1", "HL-60", "Activity", "2.7%"),
]

----------
- Tested on: HL-60
- ASSAY_OVERVIEW: Cytotoxicity against human HL60 cells at 0.5 uM after 72 hrs by MTT assay
- Format: functional
REPORTED_PROPERTY: Activity

# MOLECULE, ASSAY_RESULT
records = [
    ("O=C1/C(=C\\c2ccncc2)c2ccccc2N1Cc1cccc2ccccc12", "103.6%"),
    ("CC(c1ccccc1)N1C(=O)/C(=C/c2cnc3ccccc3c2)c2ccccc21 (centres undefined)", "109.9%"),
    ("O=C1/C(=C\\c2ccncc2)c2ccccc2N1Cc1ccccc1", "101%"),
    ("CC(c1ccccc1)N1C(=O)/C(=C\\c2cnc3ccccc3c2)c2ccccc21 (stereo in doubt; 25Z)", "116.1%"),
]
